Tested on: Echinochloa oryzicola Vasing
Assay: Herbicidal effects in paddy field soil treatment (Test Example 1)
Assay type: in vivo
Design: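 grade 0 to 5 of growth suppression where 5 is 90% or more and 0 below 10%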
Settings: paddy field soil treatment; 1000 g of the active ingredient per hectare; wettable powder added dropwise on water surface; 21st day after treatment
Measurement type: Herbicidal effects index, Echinochloa oryzicola Vasing
Lab note: write the figure by itself, no unit.

IN: Give me measured Herbicidal effects index, Echinochloa oryzicola Vasing, please, for this compound: CN1C(=O)COc2ccc(-n3c(=O)c(C(=O)C4=C(O)CCCC4=O)nc4ccccc43)cc21
OUT: 4

IN: Give me measured Herbicidal effects index, Echinochloa oryzicola Vasing, please, for this compound: CCCn1c(=O)c(C(=O)C2=C(O)CCCC2=O)nc2cccnc21
OUT: 5

IN: Give me measured Herbicidal effects index, Echinochloa oryzicola Vasing, please, for this compound: C=CCn1c(=O)c(C(=O)C2=C(O)CCCC2=O)nc2ccccc21
OUT: 5

IN: Give me measured Herbicidal effects index, Echinochloa oryzicola Vasing, please, for this compound: O=C1CCCC(O)=C1C(=O)c1nc2ccccc2n(C2CCSCC2)c1=O
OUT: 4

IN: Give me measured Herbicidal effects index, Echinochloa oryzicola Vasing, please, for this compound: CS(=O)(=O)CCn1c(=O)c(C(=O)C2=C(O)CCCC2=O)nc2ccccc21
OUT: 4

IN: Give me measured Herbicidal effects index, Echinochloa oryzicola Vasing, please, for this compound: O=C1CCCC(O)=C1C(=O)c1nc2ccccc2n(-c2ccc(OCC(F)(F)F)cc2)c1=O
OUT: 5

IN: Give me measured Herbicidal effects index, Echinochloa oryzicola Vasing, please, for this compound: O=C1CCCC(O)=C1C(=O)c1nc2ccccc2n(-c2ccc(Cl)cn2)c1=O
OUT: 5

IN: Give me measured Herbicidal effects index, Echinochloa oryzicola Vasing, please, for this compound: CCCCn1c(=O)c(C(=O)C2=C(O)CCCC2=O)nc2c(Cl)cccc21
OUT: 4

IN: Give me measured Herbicidal effects index, Echinochloa oryzicola Vasing, please, for this compound: O=C1CCCC(O)=C1C(=O)c1nc2ccccc2n(COCC2CCCO2)c1=O (stereo not drawn)
OUT: 4

====

Test system: Echinochloa oryzicola Vasing
Assay: Herbicidal effects in paddy field soil treatment (Test Example 1)
Format: in vivo
Parameters: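 grade 0 to 5 of growth suppression where 5 is 90% or more and 0 below 10%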
Settings: paddy field soil treatment; 1000 g of the active ingredient per hectare; wettable powder added dropwise on water surface; 21st day after treatment
Measurement type: Herbicidal effects index, Echinochloa oryzicola Vasing
Lab note: write the figure by itself, no unit.

IN: Give me measured Herbicidal effects index, Echinochloa oryzicola Vasing, please, for this molecule: Cn1nc(C(F)(F)F)nc1-n1c(=O)c(C(=O)C2=C(O)CCCC2=O)nc2ccccc21
OUT: 5

IN: Give me measured Herbicidal effects index, Echinochloa oryzicola Vasing, please, for this molecule: O=C1CCCC(O)=C1C(=O)c1nc2ccccc2n(-c2cccc(OC(F)F)c2)c1=O
OUT: 5

IN: Give me measured Herbicidal effects index, Echinochloa oryzicola Vasing, please, for this molecule: O=C1CCCC(O)=C1C(=O)c1nc2ccccc2n(-c2cccc(OC(F)(F)F)c2)c1=O
OUT: 5

IN: Give me measured Herbicidal effects index, Echinochloa oryzicola Vasing, please, for this molecule: C=CCn1c(=O)c(C(=O)C2=C(O)CCCC2=O)nc2cccnc21
OUT: 4

IN: Give me measured Herbicidal effects index, Echinochloa oryzicola Vasing, please, for this molecule: CCCCn1c(=O)c(C(=O)C2=C(O)CCCC2=O)nc2cccnc21
OUT: 5

IN: Give me measured Herbicidal effects index, Echinochloa oryzicola Vasing, please, for this molecule: Cc1csc(-n2c(=O)c(C(=O)C3=C(O)CCCC3=O)nc3ccccc32)n1
OUT: 5

IN: Give me measured Herbicidal effects index, Echinochloa oryzicola Vasing, please, for this molecule: COc1cccc(-n2c(=O)c(C(=O)C3=C(O)CCCC3=O)nc3ccccc32)c1
OUT: 5

IN: Give me measured Herbicidal effects index, Echinochloa oryzicola Vasing, please, for this molecule: COc1ccccc1-n1c(=O)c(C(=O)C2=C(O)CCCC2=O)nc2ccccc21
OUT: 5

IN: Give me measured Herbicidal effects index, Echinochloa oryzicola Vasing, please, for this molecule: COc1ccc(-n2c(=O)c(C(=O)C3=C(O)CCCC3=O)nc3ccccc32)cc1OC
OUT: 5

IN: Give me measured Herbicidal effects index, Echinochloa oryzicola Vasing, please, for this molecule: COc1ccc2nc(C(=O)C3=C(O)CCCC3=O)c(=O)n(-c3cc(F)c(OC)cc3F)c2c1
OUT: 5

IN: Give me measured Herbicidal effects index, Echinochloa oryzicola Vasing, please, for this molecule: O=C1CCCC(O)=C1C(=O)c1nc2ccccc2n(-c2ccc(Cl)cc2)c1=O
OUT: 5

IN: Give me measured Herbicidal effects index, Echinochloa oryzicola Vasing, please, for this molecule: O=C1CCCC(O)=C1C(=O)c1nc2cccnc2n(-c2ccc(Cl)cc2)c1=O
OUT: 5

IN: Give me measured Herbicidal effects index, Echinochloa oryzicola Vasing, please, for this molecule: CCn1c(=O)c(C(=O)C2=C(O)CCCC2=O)nc2c(Cl)cccc21
OUT: 5

IN: Give me measured Herbicidal effects index, Echinochloa oryzicola Vasing, please, for this molecule: O=C1CCCC(O)=C1C(=O)c1nc2ccccc2n(-c2ccc3c(c2)OCCO3)c1=O
OUT: 4

IN: Give me measured Herbicidal effects index, Echinochloa oryzicola Vasing, please, for this molecule: COc1ccccc1Cn1c(=O)c(C(=O)C2=C(O)CCCC2=O)nc2cccnc21
OUT: 5

IN: Give me measured Herbicidal effects index, Echinochloa oryzicola Vasing, please, for this molecule: COc1ccc(-n2c(=O)c(C(=O)C3=C(O)CCCC3=O)nc3c(F)c(F)ccc32)cc1
OUT: 4

IN: Give me measured Herbicidal effects index, Echinochloa oryzicola Vasing, please, for this molecule: Cn1c(=O)c(C(=O)C2=C(O)CCCC2=O)nc2ccc(Cl)cc21
OUT: 5

IN: Give me measured Herbicidal effects index, Echinochloa oryzicola Vasing, please, for this molecule: CCS(=O)(=O)Cn1c(=O)c(C(=O)C2=C(O)CCCC2=O)nc2ccccc21
OUT: 5

IN: Give me measured Herbicidal effects index, Echinochloa oryzicola Vasing, please, for this molecule: COc1ccc(-n2c(=O)c(C(=O)C3=C(O)CCCC3=O)nc3ccc(F)cc32)cc1
OUT: 5

IN: Give me measured Herbicidal effects index, Echinochloa oryzicola Vasing, please, for this molecule: Cc1cc(Cn2c(=O)c(C(=O)C3=C(O)CCCC3=O)nc3ccccc32)on1
OUT: 4

IN: Give me measured Herbicidal effects index, Echinochloa oryzicola Vasing, please, for this molecule: COc1ccc2nc(C(=O)C3=C(O)CCCC3=O)c(=O)n(-c3ccc(C)cc3)c2c1
OUT: 5

IN: Give me measured Herbicidal effects index, Echinochloa oryzicola Vasing, please, for this molecule: O=C1CCCC(O)=C1C(=O)c1nc2cccnc2n(CCc2ccccc2)c1=O
OUT: 5

IN: Give me measured Herbicidal effects index, Echinochloa oryzicola Vasing, please, for this molecule: CSCCn1c(=O)c(C(=O)C2=C(O)CCCC2=O)nc2ccccc21
OUT: 5

IN: Give me measured Herbicidal effects index, Echinochloa oryzicola Vasing, please, for this molecule: C#CCOc1ccc(-n2c(=O)c(C(=O)C3=C(O)CCCC3=O)nc3ccccc32)cc1
OUT: 5

IN: Give me measured Herbicidal effects index, Echinochloa oryzicola Vasing, please, for this molecule: CCn1c(=O)c(C(=O)C2=C(O)CCCC2=O)nc2cccnc21
OUT: 5

IN: Give me measured Herbicidal effects index, Echinochloa oryzicola Vasing, please, for this molecule: CCNc1nc(NC(C)C)nc(-n2c(=O)c(C(=O)C3=C(O)CCCC3=O)nc3ccccc32)n1
OUT: 5

IN: Give me measured Herbicidal effects index, Echinochloa oryzicola Vasing, please, for this molecule: Cc1cc(-n2c(=O)c(C(=O)C3=C(O)CCCC3=O)nc3ccccc32)nn1C
OUT: 5

IN: Give me measured Herbicidal effects index, Echinochloa oryzicola Vasing, please, for this molecule: O=C1CCCC(O)=C1C(=O)c1nc2cccnc2n(Cc2ccccc2OC(F)F)c1=O
OUT: 5

IN: Give me measured Herbicidal effects index, Echinochloa oryzicola Vasing, please, for this molecule: O=C1CCCC(O)=C1C(=O)c1nc2cccnc2n(Cc2ccccc2C(F)(F)F)c1=O
OUT: 5

IN: Give me measured Herbicidal effects index, Echinochloa oryzicola Vasing, please, for this molecule: COCC(C)n1c(=O)c(C(=O)C2=C(O)CCCC2=O)nc2ccccc21 (stereo not drawn)
OUT: 5

IN: Give me measured Herbicidal effects index, Echinochloa oryzicola Vasing, please, for this molecule: Cc1cccnc1-n1c(=O)c(C(=O)C2=C(O)CCCC2=O)nc2ccccc21
OUT: 5

IN: Give me measured Herbicidal effects index, Echinochloa oryzicola Vasing, please, for this molecule: O=C1CCCC(O)=C1C(=O)c1nc2ccccc2n(-c2ccc3ccccc3c2)c1=O
OUT: 4

IN: Give me measured Herbicidal effects index, Echinochloa oryzicola Vasing, please, for this molecule: Cc1cccc(-n2c(=O)c(C(=O)C3=C(O)CCCC3=O)nc3cccnc32)c1
OUT: 5

IN: Give me measured Herbicidal effects index, Echinochloa oryzicola Vasing, please, for this molecule: COc1ccc(-n2c(=O)c(C(=O)C3=C(O)CCCC3=O)nc3c(F)cc(F)cc32)cn1
OUT: 4

IN: Give me measured Herbicidal effects index, Echinochloa oryzicola Vasing, please, for this molecule: O=C1CCCC(O)=C1C(=O)c1nc2cc(F)ccc2n(-c2ccc3c(c2)OCCO3)c1=O
OUT: 4

IN: Give me measured Herbicidal effects index, Echinochloa oryzicola Vasing, please, for this molecule: Cc1cc(-n2c(=O)c(C(=O)C3=C(O)C4CCC(C4)C3=O)nc3ccccc32)no1 (stereo not drawn)
OUT: 5
